The measured values listed here are drawn from patent US20260167959A1.

Recorded Fold change in RNA expression between the ON state and the OFF state by entry
System: Renilla luciferase RNA
Assay: Barcoded aptazyme variant library screen: un-cleaved Renilla luciferase RNA by barcode read counts, HEK293-T cells
Type: cell-based
Conditions: un-cleaved Renilla luciferase RNA by barcode read counts; with 1 mM theophylline (ON) over without theophylline (OFF); HEK293-T cells; triplicate
Respond numerically, and do not add a unit to the figure.

The following molecules have reported results that may help.
MOLECULE: RA350 (nucleic acid, expressed or natural sequence) DNA: GCGCAGAATACCAGCATCGTCTTGATGCCCTTGGAAGTCTGTCCTGGATTCGCGGAAACGCGTACATCCAGCTGACGAGTCCCAAATAGGACGAAACGCGC
RESULT_VALUE: 0.9
//
MOLECULE: RA420 (nucleic acid, expressed or natural sequence) DNA: GCGCGTCCTGGATTCGCGGAAACGGAGAATACCAGCATCGTCTTGATGCCCTTGGAAGTCTCCGTACATCCAGCTGACGAGTCCCAAATAGGACGAAACGCGC
RESULT_VALUE: 0.6
//
MOLECULE: RA314 (nucleic acid, expressed or natural sequence) DNA: GCGCGTCCTGGATTCGCGGAAACGCGTACATCCAGCTGACGAGTCCCAAATAGGGAATACCAGCATCGTCTTGATGCCCTTGGAAGTCCGACGAAACGCGC
RESULT_VALUE: 1.0
//
MOLECULE: RA409 (nucleic acid, expressed or natural sequence) DNA: GCGCGTCCTGGATTCGCCGAGAATACCAGCATCGTCTTGATGCCCTTGGAAGTCTCGGGAAACGCGTACATCCAGCTGACGAGTCCCAAATAGGACGAAACGCGC
RESULT_VALUE: 0.7
//
MOLECULE: RA475 (nucleic acid, chemistry not given here) DNA: GCGCGTCCTGGATTCGCGGAAACGCGTACATCCAGCTGACGAGTCCCAAATAGGACGAAACGCGAGAATACCAGCATCGTCTTGATGCCCTTGGAAGTCTCGC
RESULT_VALUE: 0.3
//
MOLECULE: RA457 (nucleic acid, expressed or natural sequence) DNA: GCGCGTCCTGGATTCGCGGAAACGCGTACATCCAGCTGACGAGTCCCAAATAGGACGAAGTGATACCAGCATCGTCTTGATGCCCTTGGCAGCACTAACGCGC
RESULT_VALUE: 0.5
//
MOLECULE: RA384 (nucleic acid, expressed or natural sequence) DNA: GCGCGTCCTGGATTCGCGGAAACGCGTACATCCAGCTGACGAGTCGAGAATACCAGCATCGTCTTGATGCCCTTGGAAGTCTCCCAAATAGGACGAAACGCGC
RESULT_VALUE: 0.8
//
MOLECULE: RA324 (nucleic acid, expressed or natural sequence) DNA: GCGCGTCCTGGATTCGCGGAAACCGGAATACCAGCATCGTCTTGATGCCCTTGGAAGTCCGGCGTACATCCAGCTGACGAGTCCCAAATAGGACGAAACGCGC
RESULT_VALUE: 0.9
//
MOLECULE: RA316 (nucleic acid, expressed or natural sequence) DNA: GCGCGTCCTGGATGGAATACCAGCATCGTCTTGATGCCCTTGGAAGTCCTCGCGGAAACGCGTACATCCAGCTGACGAGTCCCAAATAGGACAAAACGCGC
RESULT_VALUE: 0.9
//
MOLECULE: RA395 (nucleic acid, expressed or natural sequence) DNA: GCGCGTCCTGGATTCGCGGAAACGCGTACATCCAGCTGACGAGTCCCAAATAGGAGAATACCAGCATCGTCTTGATGCCCTTGGAAGTCTCGACGAAACGCGC
RESULT_VALUE: 0.7

Given RA411 (nucleic acid, expressed or natural sequence) DNA: GCGCGTCCTGGATTCGCGGAAACGCGTACATCCAGCTGACGAGTCCCAAATAGCGAGAATACCAGCATCGTCTTGATGCCCTTGGAAGTCTCGGACGAAACGCGC , state its recorded Fold change in RNA expression between the ON state and the OFF state. 0.7

Please report the recorded Fold change in RNA expression between the ON state and the OFF state for RA440 (nucleic acid, expressed or natural sequence) DNA: GCGCGTCCTGGATTCGCGGAAACGCGTACATCCAGCTGACGAGTCCCAAATAGGACGAAACGCCGGAATACCAGCATCGTCTTGATGCCCTTGGAAGTCCGGC . 0.6

Can you look up the measured Fold change in RNA expression between the ON state and the OFF state of RA364 (nucleic acid, expressed or natural sequence) DNA: GCGCGTCCTGGATTCGCGGAAACGCGTGGAATACCAGCATCGTCTTGATGCCCTTGGAAGTCCACATCCAGCTGACGAGTCCCAAATAGGACGAAACGCGC for me? 0.8

I have this molecule here, RA468 (nucleic acid, expressed or natural sequence; listed as DNA, chemistry not fully specified) DNA: GCGCGTCCTGGATTCGCGGAAACGCGTACATCCAGCCGAGAATACCAGCATCGTCTTGATGCCCTTGGAAGTCTCGTGACGAGTCCCAAATAGGACGAAACGCGC , and I need its recorded Fold change in RNA expression between the ON state and the OFF state. 0.4
